Recorded values, source ChEMBL document CHEMBL1201862.

# Assay System: DNA dC->dU-editing enzyme APOBEC-3A (Homo sapiens)
# Sequence (P31941 whole entry): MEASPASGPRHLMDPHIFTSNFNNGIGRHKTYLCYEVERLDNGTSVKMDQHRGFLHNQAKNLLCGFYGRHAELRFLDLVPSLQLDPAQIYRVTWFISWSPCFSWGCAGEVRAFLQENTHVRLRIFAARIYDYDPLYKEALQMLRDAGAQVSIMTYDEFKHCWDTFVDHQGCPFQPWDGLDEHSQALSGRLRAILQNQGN
# Procedure Summary: A3A deaminase inhibition for selectivity – biochemical, dose response (AID 504722)
# Format: functional
Calls of active or inactive are those of the source. No stated cut-off is given here; in the data, actives have a measured IC50 and inactives only a lower limit.
The reply should be one of these categories: active, inactive

QUERY: Assay outcome for Cc1c2cnn(CC(=O)Nc3c(F)c(F)cc(F)c3F)c(=O)c2c(C)n1Cc1ccccc1F : what was it?
RESULT: active

QUERY: Assay outcome for C=C(C)Cn1c(-c2cccc([N+](=O)[O-])c2)n[nH]c1=S : what was it?
RESULT: inactive

QUERY: Assay outcome for C=C(C)C(=O)Nc1cccc(C2=NOC3(C2)C[C@@H](C(N)=O)N(C(=O)CCCCC)C3)c1 (some centres undefined) : what was it?
RESULT: inactive

QUERY: Assay outcome for O=c1c2ccccc2sn1-c1ccccc1 : what was it?
RESULT: inactive
